Origin of values: patent US20090186811A1

- Tested Target: human Y4 receptor (human), P50391
- Sequence (P50391 whole entry): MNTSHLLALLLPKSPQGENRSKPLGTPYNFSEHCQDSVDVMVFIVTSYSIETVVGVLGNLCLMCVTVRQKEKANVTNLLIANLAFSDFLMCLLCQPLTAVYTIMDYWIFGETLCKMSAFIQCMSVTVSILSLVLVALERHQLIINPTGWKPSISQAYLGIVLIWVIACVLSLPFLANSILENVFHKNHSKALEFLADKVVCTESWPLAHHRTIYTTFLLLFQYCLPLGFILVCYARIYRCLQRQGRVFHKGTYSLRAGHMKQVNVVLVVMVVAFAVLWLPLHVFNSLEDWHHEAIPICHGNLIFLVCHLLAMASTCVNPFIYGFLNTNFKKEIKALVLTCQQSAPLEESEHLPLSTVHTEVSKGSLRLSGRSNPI
- Experiment Summary: competition binding, 125I-PP displaced, COS-7 cells with human Y4
pIC50: −log10 of the molar value. Non-standard residues stand in square brackets, D forms with d. Primed or numbered codes have the meaning given here. No end group written: not given here. Aoc′ = not defined here

Binder | pIC50
YCIK[Aoc′]RH[dC]LNLVTRQRY (cysteine pairing not given here; reading uncertain) [[Cys2, Aoc5-24, D-Cys27]PYY] | 6.57
